# experimental_details: The drug is tested on Z-012 corresponding to metagenome with ENA study accession number: PRJEB37062 and ENA sample accession number: ERS12561812 for biotransformation under anaerobic condition. The drug concentrations were measured over 9 timepoints collected between 0 and 24 hours of incubation by liquid-chromatography-coupled mass spectrometry (LC–MS); note: call rule not given here
# measurement_context: 2 µM
measurement_label: Bacterial Biotransformation

compound | observed_result
CCN(CC)CCNC(=O)c1ccc(NC(C)=O)cc1 [ACECAINIDE] | Compound NOT metabolized
COC(=O)[C@H](c1ccccc1Cl)N1CCc2sccc2C1.O=S(=O)(O)O [CLOPIDOGREL BISULFATE] | Compound metabolized
COc1cc2nc(N3CCN(C(=O)C4CCCO4)CC3)nc(N)c2cc1OC (configuration not stated) [TERAZOSIN] | Compound NOT metabolized
N=C(N)NC(=O)Cc1c(Cl)cccc1Cl [GUANFACINE] | Compound NOT metabolized
CN1CCN2c3ccccc3Cc3ccccc3C2C1 (configuration not stated) [MIANSERIN] | Compound NOT metabolized
CCOC(=O)[C@H](CCc1ccccc1)N[C@@H](C)C(=O)N1Cc2ccccc2C[C@H]1C(=O)O | Compound NOT metabolized
CC(C)[C@H]1CC[C@H](C(=O)N[C@H](Cc2ccccc2)C(=O)O)CC1 [NATEGLINIDE] | Compound NOT metabolized
c1ccc2[nH]c(-c3cscn3)nc2c1 [THIABENDAZOLE] | Compound NOT metabolized
CN1[C@@H]2CC[C@H]1C[C@@H](OC(=O)[C@H](CO)c1ccccc1)C2 [HYOSCYAMINE] | Compound NOT metabolized
CCCN1C[C@H](CSC)C[C@@H]2c3cccc4[nH]cc(c34)C[C@H]21.CS(=O)(=O)O [PERGOLIDE MESYLATE] | Compound NOT metabolized
O=C1CC2(CCCC2)CC(=O)N1CCCCN1CCN(c2ncccn2)CC1 [BUSPIRONE] | Compound NOT metabolized
CN1CCC[C@@H]1CCO[C@](C)(c1ccccc1)c1ccc(Cl)cc1.O=C(O)/C=C/C(=O)O [CLEMASTINE FUMARATE] | Compound NOT metabolized
O=C(O)CCC(=O)O.O=C(O[C@H]1CN2CCC1CC2)N1CCc2ccccc2[C@@H]1c1ccccc1 [SOLIFENACIN SUCCINATE] | Compound metabolized
C[C@]12C=CC(=O)C=C1CC[C@@H]1[C@@H]2C(=O)C[C@@]2(C)[C@H]1CC[C@]2(O)C(=O)CO [PREDNISONE] | Compound metabolized
CCOC(=O)C1=C[C@]2(CC)CCCN3CCc4c(n1c1ccccc41)[C@@H]32 [VINPOCETINE] | Compound NOT metabolized
CC(C)c1nc(N(C)S(C)(=O)=O)nc(-c2ccc(F)cc2)c1/C=C/[C@@H](O)C[C@@H](O)CC(=O)[O-].CC(C)c1nc(N(C)S(C)(=O)=O)nc(-c2ccc(F)cc2)c1/C=C/[C@@H](O)C[C@@H](O)CC(=O)[O-].[Ca+2] [ROSUVASTATIN CALCIUM] | Compound NOT metabolized
Nc1nnc(-c2cccc(Cl)c2Cl)c(N)n1 [LAMOTRIGINE] | Compound NOT metabolized

====

# experimental_details: The drug is tested on Z-024 corresponding to pig gut metagenome with ENA study accession number: PRJEB37062 and ENA sample accession number: ERS12561823 for biotransformation under anaerobic condition. The drug concentrations were measured over 9 timepoints collected between 0 and 24 hours of incubation by liquid-chromatography-coupled mass spectrometry (LC–MS)
# measurement_context: 2 µM

compound | Bacterial Biotransformation
C=C[C@H]1CN2CC[C@H]1C[C@H]2[C@H](O)c1ccnc2ccc(OC)cc12.C=C[C@H]1CN2CC[C@H]1C[C@H]2[C@H](O)c1ccnc2ccc(OC)cc12.O.O.O=S(=O)(O)O [QUININE SULFATE] | Compound NOT metabolized
C[C@@H](c1ncncc1F)[C@](O)(Cn1cncn1)c1ccc(F)cc1F | Compound metabolized
CC(C)NCC(O)COc1ccc(CC(N)=O)cc1 (configuration not stated) | Compound NOT metabolized
CCN(CC)CCNC(=O)c1cc(S(C)(=O)=O)ccc1OC [TIAPRIDE] | Compound NOT metabolized
Clc1cccc(Cl)c1N=C1NCCN1 | Compound NOT metabolized
CN1CCC[C@@H]1CCO[C@](C)(c1ccccc1)c1ccc(Cl)cc1.O=C(O)/C=C/C(=O)O [CLEMASTINE FUMARATE] | Compound NOT metabolized
N=C(N)NC(=O)Cc1c(Cl)cccc1Cl | Compound NOT metabolized
Nc1nc(NC2CC2)c2ncn([C@H]3C=C[C@@H](CO)C3)c2n1.Nc1nc(NC2CC2)c2ncn([C@H]3C=C[C@@H](CO)C3)c2n1.O=S(=O)(O)O [ABACAVIR SULFATE] | Compound NOT metabolized
COc1cc(C(=O)NCc2ccc(OCCN(C)C)cc2)cc(OC)c1OC [TRIMETHOBENZAMIDE] | Compound NOT metabolized
CN(CCOc1ccc(CC2SC(=O)NC2=O)cc1)c1ccccn1.O=C(O)/C=C\C(=O)O (configuration not stated) [ROSIGLITAZONE MALEATE] | Compound NOT metabolized
C[C@]12CCC(=O)C=C1[C@@H]1C[C@@H]1[C@H]1[C@@H]3[C@@H]4C[C@@H]4[C@@]4(CCC(=O)O4)[C@@]3(C)CC[C@@H]12 | Compound NOT metabolized
CCCN(CCC)CCc1cccc2c1CC(=O)N2 | Compound NOT metabolized
CC(C)[C@H]1CC[C@H](C(=O)N[C@H](Cc2ccccc2)C(=O)O)CC1 [NATEGLINIDE] | Compound metabolized
CC(C)(C)NCC(O)c1cc(Cl)c(N)c(Cl)c1 (configuration not stated) | Compound NOT metabolized
N#Cc1ccc2[nH]cc(CCCCN3CCN(c4ccc5oc(C(N)=O)cc5c4)CC3)c2c1 | Compound metabolized
CN1[C@@H]2CC[C@H]1C[C@@H](OC(=O)c1c[nH]c3ccccc13)C2 | Compound NOT metabolized
CC(C)c1nc(N(C)S(C)(=O)=O)nc(-c2ccc(F)cc2)c1/C=C/[C@@H](O)C[C@@H](O)CC(=O)[O-].CC(C)c1nc(N(C)S(C)(=O)=O)nc(-c2ccc(F)cc2)c1/C=C/[C@@H](O)C[C@@H](O)CC(=O)[O-].[Ca+2] | Compound NOT metabolized
COc1ccc(CN2CCNCC2)c(OC)c1OC.Cl.Cl [TRIMETAZIDINE DIHYDROCHLORIDE] | Compound NOT metabolized
CN(C)C(=O)Oc1cccc([N+](C)(C)C)c1.[Br-] [NEOSTIGMINE BROMIDE] | Compound NOT metabolized
N[C@@H](Cc1ccc(N(CCCl)CCCl)cc1)C(=O)O | Compound metabolized
CC[C@@]1(O)C(=O)OCc2c1cc1n(c2=O)Cc2cc3c(CN(C)C)c(O)ccc3nc2-1 | Compound NOT metabolized
CC(=O)OCC(=O)[C@@]1(OC(C)=O)[C@@H](C)C[C@H]2[C@@H]3C[C@H](F)C4=CC(=O)C=C[C@]4(C)[C@@]3(F)[C@@H](O)C[C@@]21C [DIFLORASONE DIACETATE] | Compound NOT metabolized
CC(C)c1c(CN(C)C(C)Cc2ccccc2)n(C)n(-c2ccccc2)c1=O (configuration not stated) | Compound metabolized
COc1ccc(C(CN(C)C)C2(O)CCCCC2)cc1 (configuration not stated) | Compound NOT metabolized
CCN(CC)CCOC(=O)C1(C2CCCCC2)CCCCC1 | Compound metabolized
c1ccc2[nH]c(-c3cscn3)nc2c1 | Compound NOT metabolized
C[C@]12C=CC(=O)C=C1CC[C@@H]1[C@@H]2C(=O)C[C@@]2(C)[C@H]1CC[C@]2(O)C(=O)CO | Compound metabolized
CSc1ccc2c(c1)C(N1CCN(C)CC1)Cc1ccccc1S2.O=C(O)/C=C\C(=O)O (configuration not stated) | Compound metabolized
CN(C/C=C/C#CC(C)(C)C)Cc1cccc2ccccc12 | Compound NOT metabolized
OC(c1cc(C(F)(F)F)nc2c(C(F)(F)F)cccc12)C1CCCCN1 (configuration not stated) | Compound metabolized
COc1ccc2cc([C@H](C)C(=O)O)ccc2c1 | Compound NOT metabolized
CCN1CCCC1CNC(=O)c1cc(S(=O)(=O)CC)c(N)cc1OC (configuration not stated) [AMISULPRIDE] | Compound NOT metabolized
